Numbers sourced from patent US20250326840A1.

# studyTarget: T1, QP002 (biotinylated in the blocking assays, sites not given)
# T1 construct: also called SIRPα-FC; Biotin-QP002
# T1 sequence (SIRPα-Fc fusion chain, as listed by the source): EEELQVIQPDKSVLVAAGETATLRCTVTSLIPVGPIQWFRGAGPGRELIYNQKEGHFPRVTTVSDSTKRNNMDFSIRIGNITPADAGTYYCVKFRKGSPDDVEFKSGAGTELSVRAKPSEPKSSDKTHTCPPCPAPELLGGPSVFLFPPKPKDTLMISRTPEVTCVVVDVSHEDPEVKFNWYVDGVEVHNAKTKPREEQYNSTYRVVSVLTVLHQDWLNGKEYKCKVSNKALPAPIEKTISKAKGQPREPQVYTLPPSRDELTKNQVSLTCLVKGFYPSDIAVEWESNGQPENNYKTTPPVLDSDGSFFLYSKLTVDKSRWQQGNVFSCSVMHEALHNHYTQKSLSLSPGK
# methodNotes: blocking ELISA: QP001.2 (CD47) coated, biotin-QP002 (SIRPα-FC) mixed with the antibody, HRP-streptavidin; blocked ligand: CD47
propertyLabel: IC50 (read off the curve)

**Query** Complete the entry with IC50 (read off the curve) for QP2561586 (antibody, human IgG4, V domains shown, Human IgG4 heavy constant region and kappa CL) VH: QVQLVQSGAEVKKPGASVKVSCKASGYTFTNYWINWVRQAPGQGLEWIAMIDPSDSETHYNQIFKDRATLTTDTSTSTAYMELRSLRSDDTAVYYCAMDYGSLYAMDYWGRGTLVTVSS VL: DIVLTQSPDSLAVSLGERATINCRASKSVSSSGYNYIFWYQQKPGQPPKLLIYLASNLDSGVPDRFSGSGSGTDFTLTISSLQAEDVAVYYCQESRELPTFGQGTKLEIK
**Result** ~0.02 µg/mL
